The reported measurements were obtained from patent US8222247B2.

tested on: AP-1 induced transcriptional activity; assay: Cellular Transrepressional Assay (AP-1 luciferase reporter in A549 cell, PMA activated); assay type: cell-based; settings: Homo sapiens, A549, 7 h, maximum inhibition, pAP-1-Luc, PMA, read-out: AP-1 Max % inh (Cellular Transrepression Assay)
Recorded Emax by entry
Remember to put the unit after the number in your answer.

The measured Emax associated with `CCN(C)C(=O)c1ccc(-c2ccc([C@H](c3cccc(F)c3)C(C)(C)C(=O)Nc3nncs3)s2)cc1F` reads 33.6%

The measured Emax associated with CC(C)(C(=O)Nc1nncs1)C(c1ccccc1)c1ccc(-c2ccc(C(=O)N3CCOCC3)cc2)s1 (stereo not shown) reads 51%

The measured Emax associated with `C[C@@H](C(=O)Nc1nncs1)[C@H](c1ccccc1)c1ccc(-c2ccc(C(=O)N(C)C)cc2)s1` reads 54.1%

* * *

biological target: human glucocorticoid receptor (Homo sapiens, UniProt P04150); construct: purified human recombinant full-length glucocorticoid receptor (2 nM); purchased Invitrogen Part #2893; assay: Glucocorticoid Receptor Binding Assay (I), fluorescence polarization competitor kit; conditions: purified human recombinant full-length GR, Fluormone GS Red
Recorded Ki by entry
Please reply with the bare figure in nM and do not write the unit itself.

Please review the entries below; each comes with its answer.
The measured Ki associated with CN(C)C(=O)c1ccc(-c2ccc(C(c3cccc(F)c3)C(C)(C)C(=O)Nc3nncs3)s2)cc1 (stereo not shown) reads 1.46

The measured Ki associated with `CC(C)(C(=O)Nc1nncs1)[C@@H](c1cccc(F)c1)c1ccc(-c2ccc(C(=O)N3CCC3)c(F)c2)s1` reads 2.66

The measured Ki associated with CCN(C)C(=O)c1ccc(-c2ccc([C@@H](c3ccccc3)[C@@H](C)C(=O)Nc3nncs3)s2)cc1 (stereo in doubt) reads 2.15

Kindly consider the entry below.
The measured Ki associated with `C[C@@H](C(=O)Nc1nncs1)[C@@H](c1cccc(F)c1)c1ccc(-c2ccc(C(=O)N(C)C)cc2)s1` reads 236

* * *

Recorded Ki by entry
Molecular target: human glucocorticoid receptor (Homo sapiens, UniProt P04150)
Construct: purified human recombinant full-length glucocorticoid receptor (2 nM); purchased Invitrogen Part #2893
Sequence (P04150 1-777): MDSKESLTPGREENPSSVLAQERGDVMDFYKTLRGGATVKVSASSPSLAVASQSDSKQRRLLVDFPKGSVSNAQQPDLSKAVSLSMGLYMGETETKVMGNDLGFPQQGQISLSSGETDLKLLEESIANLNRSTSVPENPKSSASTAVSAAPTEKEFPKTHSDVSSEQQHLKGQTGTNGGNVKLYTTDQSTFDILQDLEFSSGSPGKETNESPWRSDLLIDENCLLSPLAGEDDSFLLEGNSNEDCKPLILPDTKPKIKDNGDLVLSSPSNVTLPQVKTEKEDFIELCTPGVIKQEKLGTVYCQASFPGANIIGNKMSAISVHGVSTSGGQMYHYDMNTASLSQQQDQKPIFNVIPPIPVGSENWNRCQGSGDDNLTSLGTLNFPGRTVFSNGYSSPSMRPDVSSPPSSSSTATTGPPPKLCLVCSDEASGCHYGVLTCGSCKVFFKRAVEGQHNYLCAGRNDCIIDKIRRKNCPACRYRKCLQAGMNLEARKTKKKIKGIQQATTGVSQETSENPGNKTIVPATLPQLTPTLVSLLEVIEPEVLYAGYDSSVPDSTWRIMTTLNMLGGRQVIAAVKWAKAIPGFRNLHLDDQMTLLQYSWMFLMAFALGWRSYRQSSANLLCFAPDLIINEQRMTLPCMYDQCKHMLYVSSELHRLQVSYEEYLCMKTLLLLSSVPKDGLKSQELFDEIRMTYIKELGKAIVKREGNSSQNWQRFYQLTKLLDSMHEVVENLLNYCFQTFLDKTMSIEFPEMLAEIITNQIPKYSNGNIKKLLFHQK
Test: Glucocorticoid Receptor Binding Assay (I), fluorescence polarization competitor kit
Details: purified human recombinant full-length GR, Fluormone GS Red
Please reply with the bare figure in nM and do not write the unit itself.

Please review the entries below; each comes with its answer.
The measured Ki associated with `CCCN(CCC)C(=O)c1ccc(-c2ccc([C@H](c3cccc(F)c3)C(C)(C)C(=O)Nc3nncs3)s2)cc1` reads 29.8

The measured Ki associated with `CC(C)(C(=O)Nc1nncs1)[C@H](c1cccc(F)c1)c1ccc(-c2ccc(C(=O)N3CCOCC3)cc2)s1` reads 66.9

The measured Ki associated with `C[C@H](C(=O)Nc1nncs1)[C@H](c1cccc(F)c1)c1ccc(-c2ccc(C(=O)N(C)C)c(Cl)c2)s1` reads 220

Kindly consider the entry below.
The measured Ki associated with CCN(CC)C(=O)c1ccc(-c2ccc(C(c3ccccc3)C(C)(C)C(=O)Nc3nncs3)s2)cc1Cl (stereo not shown) reads 17.4
